# test.target: Structural capsid protein (Human immunodeficiency virus 1, UniProt Q76129)
# Sequence (Q76129 whole entry): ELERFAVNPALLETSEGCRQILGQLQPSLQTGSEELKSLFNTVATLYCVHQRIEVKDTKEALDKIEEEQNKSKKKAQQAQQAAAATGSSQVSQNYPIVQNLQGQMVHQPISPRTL
Overview of reported pIC50 across a group of compounds:
Please treat pIC50 as minus the base-10 logarithm of the molar concentration.

**Q:** Give recorded pIC50 with Structural capsid protein (Human immunodeficiency virus 1, UniProt Q76129) for the following compound: CCN1C(=O)C2(CCc3c(O)cccc32)C(=O)N(c2ccccc2)c2cc(C(F)(F)F)ccc21 (configuration not stated)
**A:** 6.62

**Q:** Identify the measured pIC50 of `CCN1C(=O)N(c2cccc(OC)c2)C(=O)N(c2ccccc2)c2cc(C(F)(F)F)ccc21` for Structural capsid protein (Human immunodeficiency virus 1, UniProt Q76129).
**A:** 6.68

**Q:** Please provide the recorded pIC50 for `CCN1C(=O)N(c2ccc(O)cc2)C(=O)N(c2ccccc2)c2cc(C(F)(F)F)ccc21` , tested on Structural capsid protein (Human immunodeficiency virus 1, UniProt Q76129).
**A:** 7.30

**Q:** Find the measured pIC50: item CN1C(=O)C(c2ccccc2)C(=O)N(c2ccccc2)c2cc(C(F)(F)F)ccc21 (configuration not stated) , target or system Structural capsid protein (Human immunodeficiency virus 1, UniProt Q76129).
**A:** 6.17

**Q:** Please provide the recorded pIC50 for CCN1C(=O)C2(CC(C(C)C)c3cc(O)ccc32)C(=O)N(c2ccccc2)c2cc(C(F)(F)F)ccc21 (configuration not stated) , tested on Structural capsid protein (Human immunodeficiency virus 1, UniProt Q76129).
**A:** 5.96

**Q:** Form entry - test system: Structural capsid protein (Human immunodeficiency virus 1, UniProt Q76129); read-out: pIC50; compound: `CCN1C(=O)N(c2ccc(O)c(C)c2)C(=O)N(c2ccccc2)c2cc(C(F)(F)F)ccc21`
**A:** 7.05

**Q:** Item: `CCN1C(=O)N(c2ccc(OC)cc2)C(=O)N(c2ccccc2)c2cc(C(F)(F)F)ccc21` Test system: Structural capsid protein (Human immunodeficiency virus 1, UniProt Q76129) Read-out: pIC50 Value: ?
**A:** 6.74
